Target: human GCGR (Homo sapiens, UniProt P47871)
Sequence (P47871 26-477): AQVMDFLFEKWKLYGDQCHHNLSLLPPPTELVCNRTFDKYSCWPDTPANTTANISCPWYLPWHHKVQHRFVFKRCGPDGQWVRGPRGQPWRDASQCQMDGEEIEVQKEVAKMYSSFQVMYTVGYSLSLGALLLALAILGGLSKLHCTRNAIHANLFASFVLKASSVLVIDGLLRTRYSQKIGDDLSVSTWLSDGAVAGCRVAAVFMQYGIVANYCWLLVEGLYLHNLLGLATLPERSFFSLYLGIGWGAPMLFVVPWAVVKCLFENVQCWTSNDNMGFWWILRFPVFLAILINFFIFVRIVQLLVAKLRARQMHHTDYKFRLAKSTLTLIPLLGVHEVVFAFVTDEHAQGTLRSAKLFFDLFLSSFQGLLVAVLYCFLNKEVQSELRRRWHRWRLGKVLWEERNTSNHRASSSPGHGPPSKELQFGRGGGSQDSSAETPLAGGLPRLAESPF
Test: Cellular functional assay, cAMP readout (glucagon-stimulated cAMP, LANCE TR-FRET)
Conditions: HEK293 cells stably expressing full-length human GCGR; glucagon 100 pM; IC50 converted to Ki; read-out: Inhibition of cAMP Ki
value_kind: pKi
pKi is a log-scale quantity: -log10 of the concentration expressed in molar.

Some entries whose results are on file:
molecule	target_or_test_system	pKi
O=C(O)CCNC(=O)c1ccc(C(CC2CCC2)n2cc3cc(-c4ccc(C(F)(F)F)cc4)ccc3n2)cc1 (centres unmarked)	human GCGR (Homo sapiens, UniProt P47871)	7.07
Cc1cc(Cl)ccc1-c1ccc2c(cnn2C(CC(C)C)c2ccc(C(=O)NCCC(=O)O)nc2)c1 (centres unmarked)	human GCGR (Homo sapiens, UniProt P47871)	6.35
CCOc1c(-c2ccc(C(F)(F)F)cc2C)ccc2c1cnn2C(CC(C)C)c1ccc(C(=O)NCCC(=O)O)nc1 (centres unmarked)	human GCGR (Homo sapiens, UniProt P47871)	7.82
CC(C)CC(c1ccc(C(=O)NCCC(=O)O)nc1)n1ncc2cc(-c3ccc(C(F)(F)F)cc3)ccc21 (centres unmarked)	human GCGR (Homo sapiens, UniProt P47871)	6.59
O=C(O)CCNC(=O)c1ccc(C(CC2CCCC2)n2ncc3cc(-c4ccc(C(F)(F)F)cc4)ccc32)cn1 (centres unmarked)	human GCGR (Homo sapiens, UniProt P47871)	6.51
O=C(O)CCNC(=O)c1ccc(C(CCC(F)(F)F)n2ncc3cc(-c4cc5ccccc5s4)ccc32)cc1 (centres unmarked)	human GCGR (Homo sapiens, UniProt P47871)	6.85
CC(c1ccc(C(=O)NCCC(=O)O)cc1)n1ncc2cc(-c3ccc(C(C)(C)C)cc3)ccc21 (centres unmarked)	human GCGR (Homo sapiens, UniProt P47871)	5.55
CCCCCCC(c1ccc(C(=O)NCCC(=O)O)cc1)n1cc2cc(-c3ccc(C(F)(F)F)cc3)ccc2n1 (centres unmarked)	human GCGR (Homo sapiens, UniProt P47871)	7.35
Cc1cc(C(F)(F)F)ccc1-c1cc2cn(C(CC(C)C)c3ccc(C(=O)NCCC(=O)O)cc3)nc2cc1Cl (centres unmarked)	human GCGR (Homo sapiens, UniProt P47871)	7.36
Cc1c(-c2ccc(C(F)(F)F)cc2Cl)ccc2c1cnn2C(CC(C)C)c1ccc(C(=O)NCCC(=O)O)nc1 (centres unmarked)	human GCGR (Homo sapiens, UniProt P47871)	7.22

Data request: Consider the molecule shown here: O=C(O)CCNC(=O)c1ccc(C(CCC(F)(F)F)n2ncc3cc(-c4ccc(F)cc4Cl)ccc32)cc1 (centres unmarked) What is its recorded pKi?
Data returned: 6.02

Data request: Quick one: CCCC(c1ccc(C(=O)NCCC(=O)O)cc1)n1ncc2cc(-c3ccc(C(C)(C)C)cc3)ccc21 (centres unmarked)
Data returned: 6.19

Data request: Quick one: O=C(O)CCNC(=O)c1ccc(C(CC2CCCC2)n2cc3cc(-c4ccc(C(F)(F)F)cc4)ccc3n2)cc1 (centres unmarked)
Data returned: 7.05

---

Target: UniProt P47871
Experiment: Cellular functional assay, cAMP readout (glucagon-stimulated cAMP, LANCE TR-FRET)
Conditions: HEK293 cells stably expressing full-length human GCGR; glucagon 100 pM; IC50 converted to Ki; read-out: Inhibition of cAMP Ki
value_kind: pKi
pKi is a log-scale quantity: -log10 of the concentration expressed in molar.

compound	value_kind	recorded_number
Cc1cc(Cl)ccc1-c1ccc2c(cnn2C(CC2CCCCC2)c2ccc(C(=O)NCCC(=O)O)nc2)c1 (stereo not shown)	pKi	6.46
O=C(O)CCNC(=O)c1ccc(C(CC2CC2)n2ncc3cc(-c4ccc(C(F)(F)F)cc4)ccc32)cc1 (stereo not shown)	pKi	6.48
Cc1cc(Cl)ccc1-c1ccc2nn(C(CCC(F)(F)F)c3ccc(C(=O)NCCC(=O)O)cc3)cc2c1 (stereo not shown)	pKi	7.23
COc1c(-c2ccc(C(F)(F)F)cc2C)ccc2c1cnn2C(CC(C)C)c1ccc(C(=O)NCCC(=O)O)cc1 (stereo not shown)	pKi	7.22

Data request: Consider the compound shown here: CC(C)CC(c1ccc(C(=O)NCCC(=O)O)cc1)n1cc2cc(-c3ccc(Cl)cc3Cl)ccc2n1 (stereo not shown) What is its recorded pKi?
Data returned: 6.62

Data request: Quick one: CC(C)CC(c1ccc(C(=O)NCCC(=O)O)cc1)n1ncc2cc(-c3cccc4ccccc34)ccc21 (stereo not shown)
Data returned: 5.87

Values compiled from patent US10000473B2.
